From: patent US10829458B2

test: Whole blood stability; format: in vitro ADME; conditions: mouse, whole blood, 37° C., time points 0, 1, 2, 4 hr, LC/MS/MS, read-out: Whole Blood Stability (T1/2) hr. Mouse (converted)
experimental-readout: half-life at 5 µM

Here's what some known entries look like.
{"compound": "C=CC(=O)N1CCN(c2ncnc3c(F)c(-c4c(O)cccc4F)c(Cl)cc23)[C@@H](C)C1 (atropisomer, axis not shown) [III-23]", "half-life at 5 µM": "> 12 h"}
{"compound": "C=CC(=O)N1CCN(c2ncnc3c(F)c(-c4c(O)cccc4F)c(Cl)cc23)C[C@H]1C [III-21]", "half-life at 5 µM": "> 12 h"}

half-life at 5 µM in this record for C=CC(=O)N1[C@H](C)CN(c2ncnc3c(F)c(-c4c(O)cccc4F)c(Cl)cc23)C[C@H]1C [III-22] : > 12 h
